This section presents molecules with their documented inhibition values.
# System tested: Mitogen-activated protein kinase 14 (Homo sapiens)
# Sequence (Q16539 whole entry): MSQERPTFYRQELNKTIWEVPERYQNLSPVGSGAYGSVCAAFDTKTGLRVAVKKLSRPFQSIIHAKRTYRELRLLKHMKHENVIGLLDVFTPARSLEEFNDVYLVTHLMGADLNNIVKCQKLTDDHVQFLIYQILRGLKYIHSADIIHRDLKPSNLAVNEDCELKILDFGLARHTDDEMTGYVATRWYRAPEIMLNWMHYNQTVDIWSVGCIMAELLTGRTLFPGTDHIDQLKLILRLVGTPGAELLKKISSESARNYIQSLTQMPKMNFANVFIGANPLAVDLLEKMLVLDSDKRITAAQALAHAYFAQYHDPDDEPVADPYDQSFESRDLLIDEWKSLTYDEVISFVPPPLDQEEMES
# Protocol summary: Inhibition of recombinant human GST-tagged full length p38a expressed in Escherichia coli expression system at 10 uM using Ser/Thr 04 as substrate incubated for 1 hr in presence of ATP by Z'LYTE assay relative to control
// units = %; emit number, no label

{"Smiles notation": "COc1cccc(-c2nc(-c3ccccc3)[nH]c2-c2ccnc(NCCNS(=O)(=O)c3ccc(Br)cc3)c2)c1", "inhibition, %": 90}

input: Given `O=S(=O)(NCCCNc1cc(-c2[nH]c(-c3ccccc3)nc2-c2cccc(O)c2)ccn1)c1ccc(C(F)(F)F)cc1` , state its recorded inhibition.
output: 75.3

input: Which inhibition is listed for `COc1ccc(S(=O)(=O)NCCCNc2cc(-c3[nH]c(-c4ccccc4)nc3-c3cccc(O)c3)ccn2)cc1` ?
output: 92

###

# key: entry, value: inhibition
# System tested: Mitogen-activated protein kinase 14 (Homo sapiens)
# Protocol summary: Inhibition of recombinant human GST-tagged full length p38a expressed in Escherichia coli expression system at 10 uM using Ser/Thr 04 as substrate incubated for 1 hr in presence of ATP by Z'LYTE assay relative to control
# include the unit after the value

A selection of reference data follows.
{"Smiles notation": "COc1ccc(S(=O)(=O)NCCNc2cc(-c3[nH]c(-c4ccccc4)nc3-c3cccc(O)c3)ccn2)cc1", "inhibition": "75%"}
{"Smiles notation": "O=S(=O)(NCCNc1cc(-c2[nH]c(-c3ccccc3)nc2-c2cccc(O)c2)ccn1)c1cccc(F)c1", "inhibition": "59.6%"}
{"Smiles notation": "O=S(=O)(NCCNc1cc(-c2[nH]c(-c3ccccc3)nc2-c2cccc(O)c2)ccn1)c1ccc(C(F)(F)F)cc1", "inhibition": "36.5%"}

input: Please look up its inhibition: `O=S(=O)(NCCCNc1cc(-c2[nH]c(-c3ccccc3)nc2-c2cccc(O)c2)ccn1)c1cccc(Cl)c1`
output: 86.8%

input: Form field: reported inhibition of `O=S(=O)(NCCCNc1cc(-c2[nH]c(-c3ccccc3)nc2-c2cccc(O)c2)ccn1)c1ccccc1`
output: 99.8%

The reported measurements were obtained from ChEMBL document CHEMBL4680344.
